Origin of the recorded values: the supplement of paper PMC10266784

B1: library; numbered along this chain (parent)
chain: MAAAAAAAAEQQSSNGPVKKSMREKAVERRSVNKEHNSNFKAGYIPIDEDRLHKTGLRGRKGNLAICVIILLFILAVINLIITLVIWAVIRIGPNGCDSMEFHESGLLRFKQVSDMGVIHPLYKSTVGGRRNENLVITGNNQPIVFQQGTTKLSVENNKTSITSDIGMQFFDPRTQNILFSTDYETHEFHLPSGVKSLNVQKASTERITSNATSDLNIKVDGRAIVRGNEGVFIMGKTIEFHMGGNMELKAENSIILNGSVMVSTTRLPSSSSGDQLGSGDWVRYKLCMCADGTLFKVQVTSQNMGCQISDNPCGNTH

Variants of: B1
assay.name: SGCB cell-surface expression functional score (HA stain, bin4 vs bin1, normalised to synonymous) (log10 ratio); higher = more cell-surface SGCB (functional)
Hi, to clarify the labels: met covers SGCB cell-surface expression functional score (log10) from 0.1 upward, not met covers anything below 0.1.

[
  {
    "mutation.label": "G259H",
    "qualitative.label": "met"
  },
  {
    "mutation.label": "K297D",
    "qualitative.label": "not met"
  },
  {
    "mutation.label": "W87F",
    "qualitative.label": "met"
  },
  {
    "mutation.label": "G236K",
    "qualitative.label": "not met"
  },
  {
    "mutation.label": "L72K",
    "qualitative.label": "not met"
  }
]

Query: Check the entry L75P : does SGCB cell-surface expression functional score (log10) equal or exceed 0.1?
Response: not met

Query: Check the entry V226G : does SGCB cell-surface expression functional score (log10) equal or exceed 0.1?
Response: not met

Query: Check the entry G129D : does SGCB cell-surface expression functional score (log10) equal or exceed 0.1?
Response: not met
